Catalogue of protein stability index readings, one per entry.
Test: protein stability index of a GFP-peptide fusion (GPS, HEK-293T) (PSI 1-6); higher = more stable;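 note: 24-mer peptide tiles fused after GFP, lentivirally expressed, FACS-sorted into six equal bins by GFP/DsRed ratio, decoded by Illumina sequencing, PSI is the read-weighted mean bin number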
Details: treatment: DMSO; c terminus: a fixed tail appended
QUANTITY_MEASURED: protein stability index

* QADTVHSNPELDVLLLGSVDGRHL [DNAAF3] | 3.77
* VPYHIARIPYTKSQTEAHYSCQSK [P2RY14] | 3.47
* HSIIISLVEAGAHTDMTNKQNKTP [FEM1B] | 2.46
* LQSYQAEIIELRRTVNALEIELQA [KRT33B] | 2.59
* LKPFFMKEVGSHFDDFVTNLIEKS [SOAT1] | 2.48
* LGKLIPRHQSIFKSNGFFHGISIP [CDKL4] | 2.17
* LFQILSERQDMYQCLVEGCTEKFK [ZNF511] | 2.24
* SDLTLYLVVAVAAVSCVFLAFVIV [PCDHGA10] | 2.97
* IPHTHLLATLDPLALDREPPPHLL [WDR88] | 3.23
* LYIQSHYQLELQCCIDWTHVTDPL [SMG5] | 3.31
* TEGNPRWEQTHLTYRIENYTPDLP [MMP1] | 3.37
* VLMAVSVHSERKLLPLVTLCDGNP [SCNN1D] | 2.4
* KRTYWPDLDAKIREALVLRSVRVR [PLD5] | 2.4
* FIEERRQGLEQFINKIAGHPLAQN [SNX12] | 2.73
* KETEERTDGERVAEVAPEERENVA [SDE2] | 5.64
* SPFSVHPKTGRISVPIDLQKVDQF [PRIM1] | 3.18
* LGRGLVGGQEEASQEAGLPAGAGP [SEPHS2] | 5.23
* ENLIRERSQQQEPLLCPSYQSYFK [KRT33B] | 3.39
* RLSSRYRYGQLIEINSHSLFSKWF [TRIP13] | 2.12
* RSDVEKGGKIIMPPSALDQLSRLN [UFD1] | 3.55
* TQPPDESCSQNLLITQQIIPVLYC [P2RY14] | 2.28
* DPNTRPVGEKNCTGPPCDRQWTVS [ADAMTSL2] | 4.89
* LEVERQENEQRRLFIQKEEQLQQI [MNAT1] | 4.6
* VMSEGLGMRYAFIGPLETMHLNAE [CRYL1] | 2.05
* PSPTSPPPPELMDVSLVGGPADCS [DYRK1B] | 5.09
* PAIVEAGGMQALGLHLTDPSQRLV [CTNNB1] | 3.79
* LEEELRQLKEEMARHLREYQELLN [PRPH] | 3.27
